Each entry below carries its reported CHO hydroxylation.
# experimental_system: full-length CYP46A1 (Homo sapiens, UniProt Q9Y6A2)
# Sequence (Q9Y6A2 whole entry): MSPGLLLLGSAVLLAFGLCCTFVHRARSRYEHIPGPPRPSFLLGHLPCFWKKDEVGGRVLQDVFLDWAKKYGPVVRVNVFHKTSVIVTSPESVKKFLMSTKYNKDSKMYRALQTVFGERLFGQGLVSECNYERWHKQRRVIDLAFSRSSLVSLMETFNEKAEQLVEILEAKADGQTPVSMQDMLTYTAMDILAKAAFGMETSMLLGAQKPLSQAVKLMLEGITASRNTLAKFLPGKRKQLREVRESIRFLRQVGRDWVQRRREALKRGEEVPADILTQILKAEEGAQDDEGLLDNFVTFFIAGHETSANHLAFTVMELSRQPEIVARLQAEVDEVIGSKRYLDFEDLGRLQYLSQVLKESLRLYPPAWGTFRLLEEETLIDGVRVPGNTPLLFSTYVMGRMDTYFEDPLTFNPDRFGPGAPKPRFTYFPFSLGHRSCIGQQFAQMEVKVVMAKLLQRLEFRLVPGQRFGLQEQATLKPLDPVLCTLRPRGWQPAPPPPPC
# test_summary: Inhibition/stimulation of cholesterol hydroxylase activity at fixed 43 μM test compound
# Format: biochemical
# measurement_conditions: remaining activity, None = 100; 2.7 μM cholesterol, 43 μM added steroid
State just the number; it will be interpreted in %.

Observe how each entry below is paired with its result.
[[record]]
chemical_structure = "CC(C)CCC[C@@H](C)[C@H]1CC[C@H]2[C@@H]3CC=C4C[C@@H](O)CC[C@]4(C)[C@H]3CC[C@]12C"
measured_result = 27

[[record]]
chemical_structure = "CC(=O)[C@H]1CC[C@H]2[C@@H]3CC=C4C[C@@H](O)CC[C@]4(C)[C@H]3CC[C@]12C"
measured_result = 32

[[record]]
chemical_structure = "C[C@]12CC[C@H]3[C@@H](CCC4=CC(=O)CC[C@@]43C)[C@@H]1CC[C@@H]2O"
measured_result = 49


We next turn to a different compound, shown below.
Reported CHO hydroxylation for full-length CYP46A1 (Homo sapiens, UniProt Q9Y6A2), given C[C@]12CC[C@@H]3c4ccc(O)cc4CC[C@H]3[C@@H]1CC[C@@H]2O ?
32
